- TEST DETAILS: NCI Yeast Anticancer Drug Screen. Data for the mec2-1 strain (AID 157)
- RUN PARAMETERS: S. cerevisiae mec2-1 strain, at 50.0 µM, active compounds read high
About 79,000 compounds went through this panel and 15% of them were active in at least one assay; those are over-represented in the sample as a whole.
Catalogue of compounds with associated growth inhibition
ASSAY ENDPOINT: growth inhibition (%)

* CC(C)CC1NC(=O)C(C(C)C)NC(=O)CC(C)COC(=O)C(CC(C)C)N(C)C(=O)C(C(C)C)NC(=O)C(C(C)C)OC1=O (centres undefined) | -3.7
* CC(CN(C)C)CN1c2ccccc2Sc2ccccc21 (centres undefined) | -2.4
* COC(=O)/C=C\CC(=O)OC | -5
* COc1cccc(NC(=O)CC(=O)N/N=C/c2ccc(N(CCC#N)CCC#N)c(I)c2)c1 | 8.95
* Cc1ccc(N2CCN(c3ccc(C)cc3)C2=C2N(c3ccc(C)cc3)CCN2c2ccc(C)cc2)cc1 | 20.4
* Brc1ccc(N=N/C(=N/Nc2ccccc2)c2ccc(/C=N/Nc3ccccc3)cc2)cc1 | 24.4
* CCC(C)NCC/C(=C\[Si](C)(C)C)c1ccccc1 (centres undefined) | -11.8
* CCO/C=C1/C(=O)N(C)c2c1c(=O)n(C)c(=O)n2C | -0.25
* C[C@]12CCC(=O)C=C1CC[C@@H]1C2CC[C@]2(C)Nc3[nH]ncc3CC12 (some centres undefined) | 9.6
* COc1cc(C2c3cc4c(cc3OC(N3CCNCC3)C2C)OCO4)cc(OC)c1OC (centres undefined) | -42.8
* Clc1ccc2sc(-c3ccccc3)nc2c1 | -18.4
* Cc1cc(C)c(Br)cc1C | 15
* CC(=O)c1ccc(Cl)c(Cl)c1 | -0.5
* O=c1[nH]nnc2cc(Cl)ccc12 | 6.15
* COc1ccc(/C=C/c2cc(O)cc(OC3OC(CO)C(O)C(O)C3O)c2)cc1O (centres undefined) | 10.5
* CCOC(=O)C(Nc1cc([N+](=O)[O-])ccc1C(=O)N1CCCCC1)(C(=O)OCC)N1CCCCC1 | 12.8
* N#CCCN(C1=NN(C(=O)CC(=O)Nc2ccc(Cl)cc2)C(c2ccccc2)C1)c1ccc(Cl)cc1 (centres undefined) | -13.7
* ClCC1CCN(Cc2ccccc2)CC1 | 13.9
* O=C(CO)c1ccc(-c2ccccc2)cc1 | -12.4
* CCN(CC)CCSCCSCCN(CC)CC | -1.55
* [B-][N+]1(C)CC[N+]([B-])(C)CC1 (centres undefined) | 5.8
* O=CN(c1ccccc1)c1ccccc1 | -2.4
* CN(C)CC(N)C(=O)O (centres undefined) | -13.1
* C[N+](C)(C)CCOC(=O)C(c1ccccc1)C1(O)CCCC1 (centres undefined) | -16.1
* N#Cc1c(N)nc(N)nc1Nc1ccc(Cl)cc1 | -8.7
* O=C1C(c2ccccc2)=[N+]([O-])c2cc([N+](=O)[O-])ccc21 | 5.65
* Cc1ccc2cccc([N+](=O)[O-])c2n1 | -23.5
* COc1cccc(C2CC(C)(N3CCCC3)Oc3cc4c(cc32)OCO4)c1O (centres undefined) | 13.9
* C/C(C(=O)O)=C(\C)c1ccccc1 | -0.75
* CCOC(=O)Nc1ccc([N+](=O)[O-])cc1[N+](=O)[O-] | -0.45
* CCN(CC)P(=O)(c1ccc2c(c1)OCCOCCOCCOCCO2)N(CC)CC | 22.9
* CCOC(CCCl)c1ccccc1 (centres undefined) | -12.4
* Fc1ccccc1N=Cc1ccc(C=Nc2ccccc2F)cc1 | -11.2
* CC1OC2CC(O)C1(O)C1=C2C(O)=C(C(N)=O)C(=N)C1=O (centres undefined) | -15.6
* CCC(=O)Oc1ccc(C(C)(C)C)cc1 | -3.75
* CCCC1(c2ccccc2)CNC(=O)NC1 | 19.5
* N#CC1c2ccccc2C=CN1C(=O)c1ccccc1 (centres undefined) | -15.9
* O=c1[nH]c(/C=C(\O)c2ccncc2)nc2ccccc12 | -23.2
* Nc1ccc(Cl)c(S(=O)(=O)O)c1 | -4.35
* CC1CCCC2(C)CCC(=O)C=C12 (centres undefined) | 6.75
* CC(=O)OC1CCC2(C)C(CCC3C2CCC2(C)C(C(C)C(=O)O)CCC32)C1 (centres undefined) | 1.85
* C=CCNC(=O)CCCCCCCC1C(CCCCCCCC)C2(Cl)C(Cl)=C(Cl)C1(Cl)C2(Cl)Cl (centres undefined) | -4.6
* O=c1nc(Sc2ccccc2)ccn1C1OC(CO)C(O)C1O (centres undefined) | -8.95
* CN(C)CC(CN(C)C)C(O)c1ccccc1 (centres undefined) | -11.5
* c1ccc2[nH]cnc2c1 | -1.55
* N#Cc1nn(CCCl)c(=O)c2ccccc12 | 17.9
* CC(C)CCCC(C)C1CCC2C3CCC4CC5(C)C(CC4(C)C3CCC12C)C(=O)C5(Cl)Cl (centres undefined) | -2.7
* COC(=O)c1nc(=S)[nH]c(C(=O)OC)c1C(=O)c1ccc(OC)cc1 | -17.6
* NNc1nc2ccccc2c(=O)n1NC(=O)C(=O)Nc1cccc(C(F)(F)F)c1 | 17.6

----------
- TEST DETAILS: NCI Yeast Anticancer Drug Screen. Data for the mlh1 rad18 strain (AID 175)
- RUN PARAMETERS: S. cerevisiae mlh1 rad18 strain growth inhibition; at 50.0 µM; active compounds read high
The panel holds about 79,000 compounds, 15% with a hit somewhere; the sample as a whole holds those more often.
Below, each entry is listed alongside its reported growth inhibition.
ASSAY ENDPOINT: growth inhibition (%)

• O=C1c2ccccc2C(=O)C2C1C1C(=O)c3ccccc3C(=O)C21 (configuration not stated) = 24.6
• C=CCOC(=O)CC(=C)C(=O)OCC=C = -3.55
• O=NN(CCCl)C(=O)NC1CCC(CC(=O)O)CC1 (configuration not stated) = -6.85
• N#CCCNC(CC(=O)O)C(=O)O (configuration not stated) = -4.85
• c1ccc2c[n+](Cc3ccc4ccccc4n3)ccc2c1 = 9.9
• Cc1ccc(C(=O)OCc2ccccc2CN2CCCCC2)cc1 = 2.1
• COC1C(=O)OC(=O)C1OC (configuration not stated) = 14.9
• O=C(O)c1cc(Nc2nc(Cl)nc(Cl)n2)ccc1-c1c2ccc(=O)cc-2oc2cc(O)ccc12 = 49.5
• Cn1c(C(N)=O)cc(=O)n1-c1ccc([N+](=O)[O-])cc1 = 0.35
• O=c1cc(-c2ccccc2)nc(/C=C(\O)c2ccncc2)n1-c1ccccc1 = -8.15
• COc1ccc2c(c1)C(=O)C(CO)C(C(=O)O)C2 (configuration not stated) = -24.8
• C(=N\NC1=NCCCCN1)/c1ccc2ccccc2c1 = 7.6

----------
- TEST DETAILS: NCI Yeast Anticancer Drug Screen. Data for the mec2-1 strain (AID 157)
- RUN PARAMETERS: S. cerevisiae mec2-1 strain, at 50.0 µM, active compounds read high
Compounds without any hit were thinned out: in the full panel of roughly 79,000, 15% have a hit.
Reported growth inhibition is given for each of the following compounds.
ASSAY ENDPOINT: growth inhibition (%)

- Cc1c(C)c(CC(=O)N2CC2)c(C)c(C)c1CC(=O)N1CC1: 9.75
- CCNC(=O)NCc1cc(C)ccc1C: -12.2
- Clc1cc(OC2C3CC4CC(C3)CC2C4)nc(Cl)n1 (stereo not drawn): 1.45
- CCOC(=O)C1CCC(=O)C(CC)=C1C (stereo not drawn): -40.3
- CC=C1C(C(=O)O)C1C(=O)O (stereo not drawn): 20.8
- Nc1cc(=O)n(-c2ccccc2)[nH]1: -10.6
- O=C1c2ccccc2CN1c1ccccc1: -25.6
- O=C(/C=C/NC(=O)OCc1ccccc1)OCc1ccccc1: -5.5
- NCCCCCC(=O)O: -25.4
- O=C(c1ccc(Cl)cc1)C(c1ccccc1)N1CCCCC1 (stereo not drawn): -8.15
- CC(=O)NC(CCCCNC(=O)OCc1ccccc1)C(=O)O (stereo not drawn): -12.9
- CCOC(=O)CCC(NC(=O)c1ccc([N+](=O)[O-])cc1)C(=O)OCC (stereo not drawn): -32.3
- COc1ccc2[nH]c3c4c(ccc3c2c1)C(=O)C=CC4=O: 18.3

----------
- TEST DETAILS: NCI Yeast Anticancer Drug Screen. Data for the mec2-1 strain (AID 157)
- RUN PARAMETERS: S. cerevisiae mec2-1 strain, at 50.0 µM
About 79,000 compounds went through this panel and 15% of them were active in at least one assay; those are over-represented in the sample as a whole. Active and inactive are the calls of the source. Cut-off read from the data, not from the text of the source: active = growth inhibition above about 70%; inactive = the rest.
Outcomes: t (active), f (inactive)

- CC1=CC(=O)C=CC1=Nc1ccc(N(C)C)cc1: f
- CCCNC=O: f
- CC(=O)Nc1ccc2oc(C)nc2c1: f
- CC(=O)Nc1ccc(OC(C)=O)cc1: f
- Cc1c(Cl)cc(Cl)c(N)c1Cl: f
- CCCCN=C=C(c1ccccc1)c1ccccc1: f
- CCOc1c2c(nn(C)c1=O)Oc1ccccc1N2CCCN1CCOCC1: f
- Cc1ccc(S(=O)(=O)OC(CI)C2OC(c3ccccc3)OC3COC(c4ccccc4)OC32)cc1 (stereo not given): f
- COC(=O)C(N)Cc1ccc(O)c(O)c1 (stereo not given): f
- O=S(=O)(O)C(O)c1ccncc1 (stereo not given): f
- COc1ccc(N=c2nc3n4c(c(Br)cc(Br)c4n2)NC(C(Br)(Br)Br)=N3)cc1: f
- O=C1c2ccccc2CN1c1ccc(O)cc1: f
- CSc1nc2c(c(O)c(C)c(=O)n2C2OCC(OC(C)=O)C(OC(C)=O)C2OC(C)=O)c(=O)n1C (stereo not given): f
- CN(C)c1ncnc2c1cnn2-c1ccccc1: f
- NC(N)=NC(N)=Nc1ccc(C(=O)O)cc1: f
- O=C(CC(=O)Nc1ccccc1)NNC(c1cc(N=Nc2ccc(Br)cc2)ccc1O)P(O)O (stereo not given): f
- Cn1c2ccccc2c2c3ccc[n+](C)c3ccc21: f
- Cc1nc(N)nc(-c2ccccc2)c1N=Nc1cc(Cl)cc(Cl)c1: f
- O=[N+]([O-])c1ccc(NC(c2ccccc2)c2ccc3cccnc3c2O)cc1 (stereo not given): f
- C[n+]1nnn(/N=C\c2ccccc2)c1N: f
- Oc1ccc(O)c(-c2ccccc2)c1: f
- CC(=O)N(CCCCNC(=O)C(F)(F)F)CCCNC(=O)C(F)(F)F: f
- COC1(OC)CC2C(=O)N(Cc3ccccc3)C1C=C2S(=O)(=O)c1ccccc1 (stereo not given): f
- C1=C(c2ccccc2)OC(c2ccccc2)=C(c2ccccc2)[P+]1(c1ccccc1)c1ccccc1: t
- O=[N+]([O-])c1ccc(CSc2ncnc3c2ncn3C2OC(CO)C(O)C2O)cc1 (stereo not given): f

These entries and their values trace back to PubChem BioAssay (NCI).
